// data source = paper PMC12102759

B1: RNF115 peptide 67-82 (E3 ubiquitin-protein ligase RNF115), 16-mer library wild type / MDM2 SWIB (MDM2 SWIB/MDM2 domain, residues 17-125) (parent)
chain 1: TTTHFAELWGHLDHTM
chain 2: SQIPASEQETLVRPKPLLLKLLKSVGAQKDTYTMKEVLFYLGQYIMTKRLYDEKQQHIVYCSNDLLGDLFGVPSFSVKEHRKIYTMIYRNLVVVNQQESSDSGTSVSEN

Variants of: B1
test details: proteomic peptide phage display deep mutational scan (ProP-PD DMS): M13 P8 16-mer library selected against immobilised GST-tagged bait for four days (rounds), NGS of the eluted pools per day and pseudo-replica
assay context: with MDM2 SWIB (MDM2 SWIB/MDM2 domain, residues 17-125); bait immobilised on MaxiSorp plates (10 µg), library pre-cleared on GST, 2 h binding at 4 °C, five washes; one round per day, days 1-4; value from days 2 and 3; keep out of graded; scale: average fractional NGS count over selection days 2 and 3
value type: screen value
Reply with just the number.

chain 1 L12S : 0
chain 1 H4W : 2.47e-05

Per the record, chain 1 F5A has screen value of 0

// field: screen value; key: chain 1 G10H ; value = 5.57e-05

Form: variant = chain 1 W9D ; screen value = 0

# screen value (variant: chain 1 F5K ) is 0

Quick note, screen value for chain 1 L12F landed at 0

Kindly note the recorded screen value for chain 1 T2W , which is 2.98e-05

screen value reading for chain 1 A6R : 0

GET /value?item= chain 1 W9H &field=screen value returns 0

Please fill in: screen value reported for chain 1 A6P = 3.8e-05
